# assayed system: T1, hIL-18BP-hFc (human, UniProt O95998 31-194, limits assumed)
# T1 sequence (looked up): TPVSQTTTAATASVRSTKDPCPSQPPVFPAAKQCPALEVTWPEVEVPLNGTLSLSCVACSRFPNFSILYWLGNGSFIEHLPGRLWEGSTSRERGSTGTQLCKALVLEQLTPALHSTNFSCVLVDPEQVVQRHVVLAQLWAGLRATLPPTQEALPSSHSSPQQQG
# protocol text: cell-based or functional assay
Known EC50 (nM) in the Presence of 1 µg/mL hIL-18BP-hFc, PBMC assay (hIFNγ release) of a selection of binders
Write the value in nM as a bare number.

IL-18 variant polypeptide M11 (ligand) YFPKLRSKLSVIRNLNDQVLFIDQGNRPLFEDMTDSDCRDNAPRTIFIISMYKSSRNRGMAVTISVKCEKISTLSCENKIISFKEMNPPDGIKDTKSDIIFFQTSVPGHDNKMQFESSSYEGYFLACEKERDLFKLILKKEDELGDRSIMFTVQNED; 0.068

Continue with the binder presented below.
The binder identified as IL-18 variant polypeptide M13 (ligand) YFPKLKSKLSVIRNLNDQVLFIDQGNRPLFEDMTDSDCRDNAPRTIFIISMYKQSIWRGMAVTISVKCEKISTLSCENKIISFKEMNPPDNIKDTKSDIIFFQRSVPGHDNKMQFESSSYEGYFLACEKERDLFKLILKKEDELGDRSIMFTVQNED registered its EC50 (nM) in the Presence of 1 µg/mL hIL-18BP-hFc, PBMC assay (hIFNγ release) at 0.025

Sourced from patent US20260092093A1
